Source listed as patent US20240343803A1.

Molecular target: T1, Fusion protein of extracellular domain of human TIGIT and mouse IgG2a Fc fragment (human TIGIT ECD-mFc) (human)
T1 construct: The entry includes the signal peptide (limits not recoverable) and the mouse IgG2a Fc
T1 chain: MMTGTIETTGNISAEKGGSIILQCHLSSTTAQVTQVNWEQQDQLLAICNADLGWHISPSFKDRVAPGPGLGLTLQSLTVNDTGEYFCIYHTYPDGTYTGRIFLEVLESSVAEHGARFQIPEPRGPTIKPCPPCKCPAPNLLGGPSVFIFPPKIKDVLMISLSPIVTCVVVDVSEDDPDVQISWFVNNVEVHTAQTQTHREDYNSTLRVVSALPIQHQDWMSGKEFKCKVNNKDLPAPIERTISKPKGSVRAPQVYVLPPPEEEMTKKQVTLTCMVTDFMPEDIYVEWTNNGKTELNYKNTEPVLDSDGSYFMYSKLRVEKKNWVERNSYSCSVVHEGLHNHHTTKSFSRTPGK
Test: ELISA, human TIGIT ECD-mFc
Measured EC50, listed per entry.
The reply should be a number in nM, with the unit left off.

[[record]]
binder = "TIGIT-002-H2L1 (antibody, V domains shown, Humanized anti-TIGIT antibody) VH: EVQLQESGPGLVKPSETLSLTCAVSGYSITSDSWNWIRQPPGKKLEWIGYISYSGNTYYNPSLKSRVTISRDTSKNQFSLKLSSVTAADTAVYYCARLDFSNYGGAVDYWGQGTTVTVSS VL: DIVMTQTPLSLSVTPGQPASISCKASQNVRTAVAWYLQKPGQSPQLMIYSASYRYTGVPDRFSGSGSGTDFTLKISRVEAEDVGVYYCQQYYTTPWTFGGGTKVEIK"
obs_value = 0.0188


Could you now look at the following binder, please?
Requested read-out: EC50. Entry: TIGIT-002-H1L1 (antibody, V domains shown, Humanized anti-TIGIT antibody) VH: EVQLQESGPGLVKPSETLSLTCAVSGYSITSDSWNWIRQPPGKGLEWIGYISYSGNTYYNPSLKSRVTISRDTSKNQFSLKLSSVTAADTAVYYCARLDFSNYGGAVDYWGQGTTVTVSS VL: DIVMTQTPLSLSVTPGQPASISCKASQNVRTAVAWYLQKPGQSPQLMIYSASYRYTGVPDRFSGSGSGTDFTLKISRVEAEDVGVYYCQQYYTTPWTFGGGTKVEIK 0.0155
